# ASSAY DETAILS: Metabolic stability in human liver microsomes assessed as compound remaining by LC-MS/MS analysis; note: time not given here
# Assay type: ADME, microsome
ENDPOINT NAME: Stability (%)
Answers are plain numbers, in %.

{"MOLECULAR STRING": "O=C(CN1CCN(CCO)CC1)Nc1cc(Nc2nc(-c3cccc(C(F)(F)F)n3)nn3cccc23)ccn1", "MEAS VALUE": 70}

Here are 6 molecules. What values of Stability were reported for them?
1. Cc1cccc(-c2nc(Nc3ccncc3F)c3nc[nH]c3n2)n1
2. CC(=O)Nc1cc(Nc2nc(-c3cccc(C(F)(F)F)n3)nn3cccc23)ccn1
3. Cc1cccc(-c2nc(Nc3ccncc3F)c3cc[nH]c3n2)n1
4. N[C@@H]1CCN(Cc2ccn3nc(-c4ccccn4)nc(Nc4ccncc4F)c23)C[C@H]1O
5. CC(=O)Nc1cc(Nc2nc(-c3cccc(C(F)(F)F)n3)nc3[nH]cnc23)ccn1
6. COc1cccc(-c2nc(Nc3ccncc3)c3cccn3n2)n1

[38, 75, 25, 93, 85, 12]

----------
Can you tell me Stability for the items I'm about to list?
# ASSAY DETAILS: Metabolic stability in rat liver microsomes assessed as compound remaining by LC-MS/MS analysis; note: time not given here
# Type: ADME, microsome
Give bare numbers, in %.

{"MOLECULAR STRING": "Cc1cccc(-c2nc(Nc3c(F)cncc3F)c3cccn3n2)n1", "Stability, %": 39}
{"MOLECULAR STRING": "CC(=O)Nc1cc(Nc2nc(-c3cccc(C(F)(F)F)n3)nc3[nH]cnc23)ccn1", "Stability, %": 77}
{"MOLECULAR STRING": "N[C@@H]1CCN(Cc2ccn3nc(-c4ccccn4)nc(Nc4ccncc4F)c23)C[C@H]1O", "Stability, %": 92}

Now let's try a different one.
Assign Stability to the following record: `Cc1cccc(-c2nc(Nc3ccncc3)c3cccn3n2)n1`
28

----------
# ASSAY DETAILS: Metabolic stability in human liver microsomes assessed as compound remaining by LC-MS/MS analysis; note: time not given here
# Assay type: ADME, microsome
ENDPOINT NAME: Stability

Below: 6 compounds and their reported Stability.
{"MOLECULAR STRING": "CC(=O)Nc1cc(Nc2nc(-c3cccc(C(F)(F)F)n3)nc3[nH]ccc23)ccn1", "Stability": "81%"}
{"MOLECULAR STRING": "Cc1cccc(-c2nc(Nc3c(F)cncc3F)c3cccn3n2)n1", "Stability": "15%"}
{"MOLECULAR STRING": "CC(=O)Nc1cc(Nc2nc(-c3cccc(C(F)(F)F)n3)nn3cccc23)c(F)cn1", "Stability": "78%"}
{"MOLECULAR STRING": "Cc1cccc(-c2nc(Nc3ccncc3)c3cccn3n2)n1", "Stability": "11%"}
{"MOLECULAR STRING": "Fc1cnccc1Nc1nc(-c2cccc(C(F)(F)F)n2)nc2[nH]ccc12", "Stability": "36%"}
{"MOLECULAR STRING": "c1ccc(-c2nc(Nc3ccncc3)c3cccn3n2)nc1", "Stability": "33%"}

Here are 3 compounds. What values of Stability were reported for them?
1. Fc1cnccc1Nc1nc(-c2ccccn2)nn2cccc12
2. N[C@H]1CC[C@@H](NCc2ccn3nc(-c4ccccn4)nc(Nc4ccncc4F)c23)CC1
3. FC(F)(F)c1cccc(-c2nc(Nc3ccncc3)c3cccn3n2)n1

1. 54%
2. 86%
3. 24%

Here are 2 compounds. What values of Stability were reported for them?
1. Cc1cccc(-c2nc(Nc3ccncc3F)c3cccn3n2)n1
2. c1ccc(-c2nn3c(c2-c2ccnc4cc(OCCN5CCOCC5)ccc24)CCC3)nc1

1: 11%; 2: 58%

Here are 2 compounds. What values of Stability were reported for them?
1. Cc1cccc(-c2nc(Nc3ccncc3C(=O)NC(C)C)c3cccn3n2)n1
2. N[C@H]1CCN(Cc2ccn3nc(-c4ccccn4)nc(Nc4ccncc4F)c23)C[C@@H]1O

1: 65%; 2: 85%
